test: AUC in Lewis rat at 5 mg/kg, po measured up to 24 hrs by LC-MS/MS method; assay type: ADME, organism-based; design: route oral, dose 5 mg/kg, time <=24; conditions: in vivo
observedProperty: AUC at 24 h (ng·h/mL)
One number for each entry, in ng·h/mL.

Query (molecule): CCS(=O)(=O)N1CC(CC#N)(n2cc(-c3ncnc4[nH]ccc34)cn2)C1 ; field requested: AUC at 24 h
3610

###

assay: Half life in Lewis rat at 1 mg/kg, iv measured up to 24 hrs by LC-MS/MS method; type: ADME, organism-based; conditions: in vivo
observedProperty: half-life
Note to self: number, then unit, no commentary.

Param item = CCS(=O)(=O)N1CC(CC#N)(n2cc(-c3ncnc4[nH]ccc34)cn2)C1 [BARICITINIB] ; retrieve measured half-life.
1.96 h
